Quick reference: EC50 of the listed items.
- targetEntity: m-CTR:m-RAMP1 (Mus musculus, UniProt Q60755+Q9WTJ5)
- Sequence (Q60755 42-496 isoform Q60755-2 limits assumed): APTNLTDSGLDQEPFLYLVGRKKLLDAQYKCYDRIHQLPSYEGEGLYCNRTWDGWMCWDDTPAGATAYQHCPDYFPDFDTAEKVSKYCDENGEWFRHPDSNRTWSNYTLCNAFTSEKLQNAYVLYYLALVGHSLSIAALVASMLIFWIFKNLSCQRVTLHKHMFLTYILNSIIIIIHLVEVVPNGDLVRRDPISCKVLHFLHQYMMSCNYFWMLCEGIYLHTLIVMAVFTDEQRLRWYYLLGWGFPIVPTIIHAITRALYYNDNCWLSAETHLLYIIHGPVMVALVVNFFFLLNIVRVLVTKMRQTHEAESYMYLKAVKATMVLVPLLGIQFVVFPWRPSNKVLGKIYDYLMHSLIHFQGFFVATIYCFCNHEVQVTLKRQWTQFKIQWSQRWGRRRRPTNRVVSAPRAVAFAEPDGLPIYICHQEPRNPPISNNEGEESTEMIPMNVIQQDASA
- Sequence (Q9WTJ5 27-148): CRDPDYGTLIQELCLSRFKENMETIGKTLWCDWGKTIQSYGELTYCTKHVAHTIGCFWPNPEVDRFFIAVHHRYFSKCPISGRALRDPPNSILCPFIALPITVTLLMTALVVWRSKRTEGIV
- assayRemarks: cAMP production, agonist concentration-response, transfected Cos7 cells
- Format: cell-based
- assayConditions: SEM
Positions of bridges follow the written chain, without caps; N, C: chain ends. No end group written: not given here.
metric: EC50

| substance | targetEntity | metric | reportedResult |
| --- | --- | --- | --- |
| PHAQLLRVGCVLGTCQVQNLSHRLWQLVRPAGRRDSAPVDPSSPHSY-NH2 (disulfide 10-15) [m-AM2_47] | m-CTR:m-RAMP1 (Mus musculus, UniProt Q60755+Q9WTJ5) | EC50 | 6.92 nM |
| YRQSMNQGSRSNGCRFGTCTFQKLAHQIYQLTDKDKDGMAPRNKISPQGY-NH2 (disulfide 14-19) [m-AM] | m-CTR:m-RAMP1 (Mus musculus, UniProt Q60755+Q9WTJ5) | EC50 | 27.5 nM |

These data points were gathered from paper PMC8776895.
